Attribution: patent US6562978B1

Biological target: human CCR5 (Homo sapiens)
Construct: expressed in transfected cells; whole cells in the well
Sequence (P51681 whole entry): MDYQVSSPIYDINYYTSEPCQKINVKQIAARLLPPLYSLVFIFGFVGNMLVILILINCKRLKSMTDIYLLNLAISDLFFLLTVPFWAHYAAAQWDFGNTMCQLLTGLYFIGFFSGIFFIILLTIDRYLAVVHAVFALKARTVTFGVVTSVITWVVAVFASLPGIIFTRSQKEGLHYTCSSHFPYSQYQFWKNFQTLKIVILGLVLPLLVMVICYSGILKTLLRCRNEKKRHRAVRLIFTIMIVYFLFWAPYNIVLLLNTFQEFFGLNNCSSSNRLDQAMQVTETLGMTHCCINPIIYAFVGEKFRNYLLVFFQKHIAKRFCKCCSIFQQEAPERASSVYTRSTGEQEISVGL
Experiment: CCR5 binding assay: inhibition of [125I]-RANTES binding to CHO/CCR5 cells
Settings: 1.0 μM test compound, 100 pM [125I]-RANTES, room temperature 40 minutes, read-out: Inhibition Rate (%) at 1.0 μM
property.name: inhibition at 1 µM (%)
Give bare numbers, in %.

Illustrative cases are given below, each with its answer.
| molecular.string | study.target | inhibition at 1 µM (%) |
| --- | --- | --- |
| CS(=O)(=O)c1ccc(S(=O)(=O)C2CCN(CCCN(C(=O)C3CCN(S(C)(=O)=O)CC3)c3ccc(Cl)c(Cl)c3)CC2)cc1 | human CCR5 (Homo sapiens) | 100 |
| COc1ccc(CC2CCN(CCCN(C(=O)C3CCN(S(C)(=O)=O)CC3)c3ccc(Cl)c(Cl)c3)CC2)cc1 | human CCR5 (Homo sapiens) | 96 |
| COc1ccc(CC2CCN(CCCN(C(=O)C3CCN(C(C)=O)CC3)c3ccc(Cl)c(Cl)c3)CC2)cc1 | human CCR5 (Homo sapiens) | 94 |

What value of inhibition at 1 µM has been recorded for this entry: `CC(=O)N1CCC(C(=O)N(CCCN2CCC(Nc3ccc(C#N)cc3)CC2)c2ccc(Cl)c(Cl)c2)CC1` 90
